Hello, the source for this data is PubChem BioAssay AID1159580, in case you need it.

Experiment: chemical genetic growth profiling, strain panel (AID 1159580);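 further: tested at 20 µM; growth read once vehicle control cultures reached saturation at 30 °C; 1 = growth at the plate median or of vehicle wells; lower values mean less growth of the strain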
Settings: S. cerevisiae deletion strains, growth OD, locus YPL240C, strain hsp82, hits give low values
Out of some 5,500 compounds screened, about 2,000 (36%) were called active. Another 18% or so got no clear call; they are omitted. This is one part of the list.
value.kind: normalized growth
API doc: respond with a numeric literal and nothing else, no unit.

Reported normalized growth ( `CC1(C)S[C@@H]2[C@H](NC(=O)[C@H](C(=O)O)c3cccs3)C(=O)N2[C@H]1C(=O)O` ) = 0.986

Reported normalized growth ( `CC(=O)N[C@@H](Cc1c[nH]c2ccccc12)C(=O)O` ) = 1

Reported normalized growth ( `COc1cccc(OC)c1C(=O)N[C@@H]1C(=O)N2[C@@H]1SC(C)(C)[C@@H]2C(=O)O` ) = 0.999

Reported normalized growth ( `CCOC([O-])=Nc1c[n+](N2CCOCC2)no1` ) = 0.981
